Target: JAK3 (Homo sapiens (Human), UniProt P52333)
Sequence (P52333 whole entry): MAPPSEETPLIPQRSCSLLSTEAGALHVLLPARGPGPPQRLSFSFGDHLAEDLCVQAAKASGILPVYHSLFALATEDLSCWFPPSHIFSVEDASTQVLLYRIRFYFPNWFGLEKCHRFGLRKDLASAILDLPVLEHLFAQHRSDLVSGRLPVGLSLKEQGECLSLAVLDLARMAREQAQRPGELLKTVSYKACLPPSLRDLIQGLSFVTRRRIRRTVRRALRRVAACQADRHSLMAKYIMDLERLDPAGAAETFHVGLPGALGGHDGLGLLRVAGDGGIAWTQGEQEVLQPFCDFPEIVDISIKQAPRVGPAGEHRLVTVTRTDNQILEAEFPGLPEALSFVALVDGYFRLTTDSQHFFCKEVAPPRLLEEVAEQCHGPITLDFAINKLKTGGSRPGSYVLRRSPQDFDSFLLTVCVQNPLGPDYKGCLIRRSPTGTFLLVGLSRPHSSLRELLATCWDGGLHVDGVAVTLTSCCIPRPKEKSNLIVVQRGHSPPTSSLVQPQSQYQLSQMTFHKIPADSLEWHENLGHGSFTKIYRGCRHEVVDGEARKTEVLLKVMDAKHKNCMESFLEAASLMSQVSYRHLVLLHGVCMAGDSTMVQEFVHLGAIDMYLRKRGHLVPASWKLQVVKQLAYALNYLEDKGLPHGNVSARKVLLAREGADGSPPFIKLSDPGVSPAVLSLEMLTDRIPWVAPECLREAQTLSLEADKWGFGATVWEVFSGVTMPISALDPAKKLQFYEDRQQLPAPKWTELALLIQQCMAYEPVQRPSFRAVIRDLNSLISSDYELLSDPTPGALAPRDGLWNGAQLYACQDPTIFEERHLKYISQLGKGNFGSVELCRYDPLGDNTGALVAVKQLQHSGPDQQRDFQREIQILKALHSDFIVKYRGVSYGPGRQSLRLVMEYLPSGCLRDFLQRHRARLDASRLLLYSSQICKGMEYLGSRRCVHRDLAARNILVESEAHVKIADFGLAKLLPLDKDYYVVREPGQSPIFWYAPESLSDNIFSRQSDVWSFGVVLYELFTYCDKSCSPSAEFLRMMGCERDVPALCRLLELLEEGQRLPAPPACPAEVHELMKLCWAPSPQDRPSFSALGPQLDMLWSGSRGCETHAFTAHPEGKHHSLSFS
Experiment: Z′-Lyte kinase inhibitory activity test
Type: biochemical
Conditions: ATP concentration 1 mM
METRIC: IC50 (nM)

- C=CC(=O)Nc1cc(Nc2ncc(Cl)c(O[C@@H]3CO[C@H]4[C@@H]3OC[C@H]4OC)n2)ccc1N(C)CCN(C)C: 1.53

a = C=CC(=O)Nc1cc(Nc2ncc(Cl)c(O[C@@H]3CO[C@H]4[C@@H]3OC[C@H]4O)n2)ccc1N1CCC(N(C)C)C1 (stereo partly drawn)
b = C=CC(=O)Nc1cc(Nc2ncc(Cl)c(O[C@@H]3CO[C@H]4[C@@H]3OC[C@H]4O)n2)ccc1N1CCC2(CCN(C)CC2)CC1
c = CN(C)C/C=C/C(=O)Nc1cc(Nc2ncc(Cl)c(O[C@@H]3CO[C@H]4[C@@H]3OC[C@H]4O)n2)ccc1N1CCC(N2CCN(C)CC2)CC1
d = C=CC(=O)Nc1cc(Nc2ncc(Cl)c(O[C@@H]3CO[C@H]4[C@@H]3OC[C@H]4F)n2)ccc1N1CCN(CC)CC1
e = C=CC(=O)Nc1cc(Nc2ncc(Cl)c(O[C@@H]3CO[C@H]4[C@@H]3OC[C@H]4O)n2)ccc1N1CCC(N(C)C)CC1
Query string: Please order the records by their reported IC50, lowest number first. A ranking is expressed here by listing the labels in the requested order.
Result string: a, e, d, b, c
(a: 1.74 nM, e: 2.68 nM, d: 6.54 nM, b: 20.6 nM, c: 4190 nM)
